- Test System: human S1P1 receptor (Homo sapiens, UniProt P21453)
- Construct: expressed in transfected cells; membranes used
- Sequence (P21453 whole entry): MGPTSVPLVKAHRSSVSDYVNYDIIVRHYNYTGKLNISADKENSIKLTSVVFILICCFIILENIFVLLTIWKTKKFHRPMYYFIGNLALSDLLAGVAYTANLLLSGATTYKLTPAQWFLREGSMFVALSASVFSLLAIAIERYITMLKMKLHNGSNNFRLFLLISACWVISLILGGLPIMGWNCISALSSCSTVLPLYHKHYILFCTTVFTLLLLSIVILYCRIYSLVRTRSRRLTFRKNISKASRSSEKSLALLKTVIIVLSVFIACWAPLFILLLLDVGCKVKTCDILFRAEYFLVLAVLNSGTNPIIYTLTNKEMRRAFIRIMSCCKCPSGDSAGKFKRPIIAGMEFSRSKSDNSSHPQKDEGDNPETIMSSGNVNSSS
- Assay Procedure: GTP γ35S binding assay for S1P1 activity
- Assay type: biochemical
- Condition Details: membranes of cells stably expressing S1P1; test concentrations 0.08 to 5,000 nM; read-out: S1P1 GTPγ^35S EC50
- Experimental: Novel compounds were synthesized and tested for S1P1 activity using the GTP γ^35S binding assay. These compounds may be assessed for their ability to activate or block activation of the human S1P1 receptor in cells stably expressing the S1P1 receptor. GTP γ^35S binding was measured in the medium containing (mM) HEPES 25, pH 7.4, MgCl2 10, NaCl 100, dithitothreitol 0.5, digitonin 0.003%, 0.2 nM GTP γ^35S, and 5 μg membrane protein in a volume of 150 μl. […]
Quantity Kind: EC50 (nM)
Answers are plain numbers, in nM.

Some entries whose results are on file:
Molecule: CC(C)Oc1ccc(-c2nc(-c3ccc(Cn4ccnc4)cc3Cl)no2)cc1[N+](=O)[O-]
Observed Value: 8.79
--
Molecule: CC(C)Oc1ccc(-c2nc(-c3ccc(Cn4ccnc4)cc3C(F)(F)F)no2)cc1C#N
Observed Value: 5.22
--
Molecule: CC(C)COc1ccc(-c2nc(-c3ccc(Cn4ccnc4)cc3C(F)(F)F)no2)cc1Br
Observed Value: 144

# return EC50 for each item in the list
1. FC(F)(F)c1cc(-c2nc(-c3ccc(Cn4ccnc4)cc3)no2)ccc1OC1CCCCC1 [Compound 5]
2. CC(C)Oc1ccc(-c2nc(-c3ccc(Cn4ccnc4)cc3)no2)cc1[N+](=O)[O-] [Compound 7]
3. CC(C)Oc1ccc(-c2nc(-c3ccc(Cn4ccnc4)cc3)no2)cc1C#N [Compound 12]
4. CC(C)Oc1ccc(-c2nc(-c3ccc(Cn4ccnc4)cc3C(F)(F)F)no2)cc1C(F)(F)F
5. CC(C)COc1ccc(-c2nc(-c3ccc(Cn4ccnc4)cc3)no2)cc1Br [Compound 9]
6. CC(C)Oc1ccc(-c2nc(-c3ccc(Cn4ccnc4)cc3)no2)cc1Cl [Compound 16]

Marked response:
1. 149
2. 3.24
3. 3.31
4. 62.4
5. 28.6
6. 2.79

Hello, I would appreciate it if you could give EC50 for each entry below.
1. Cc1cc(Cn2ccnc2)ccc1-c1noc(-c2ccc(OC(C)C)c(Br)c2)n1 [Compound 15]
2. CC(C)Oc1ccc(-c2nc(-c3ccc(Cn4ccnc4)cc3)no2)cc1C(F)(F)F [Compound 3]
3. CC(C)Oc1ccc(-c2nc(-c3ccc(Cn4ccnc4)cc3)no2)cc1 [Compound 11]
4. Cc1cc(Cn2ccnc2)ccc1-c1noc(-c2ccc(OC3CC3)c(Br)c2)n1 [Compound 2]

Marked response:
[19.6, 0.51, 453, 32]

----------
- Test System: human S1P1 receptor (Homo sapiens, UniProt P21453)
- Construct: expressed in transfected cells; membranes used
- Assay Procedure: GTP γ35S binding assay for S1P1 activity
- Assay type: biochemical
- Condition Details: intrinsic activity at 5 μM; read-out: % S1P1 STIMULATION @ 5 μM
Quantity Kind: Emax at 5 µM (%)
One number for each entry, in %.

Worked examples, 2 molecules total:
Molecule: CC(C)COc1ccc(-c2nc(-c3ccc(Cn4ccnc4)cc3C(F)(F)F)no2)cc1Br
Measurement Units: %
Emax at 5 µM: 98.3

Molecule: CC(C)Oc1ccc(-c2nc(-c3ccc(Cn4ccnc4)cc3Cl)no2)cc1C(F)(F)F
Measurement Units: %
Emax at 5 µM: 79.6

Look up Emax at 5 µM for the entries below, preserving their order.
1. CC1CCCCN1c1ccc(-c2nc(-c3ccc(Cn4ccnc4)cc3)no2)cc1C#N (stereo not drawn)
2. FC(F)(F)c1cc(-c2nc(-c3ccc(Cn4ccnc4)cc3)no2)ccc1OC1CCCCC1
3. CC(C)Oc1ccc(-c2nc(-c3ccc(Cn4ccnc4)cc3)no2)cc1C(F)(F)F
4. FC(F)(F)c1cc(Cn2ccnc2)ccc1-c1noc(-c2ccc(OC3CC3)c(Br)c2)n1
5. CC(C)COc1ccc(-c2nc(-c3ccc(Cn4ccnc4)cc3)no2)cc1C(F)(F)F

Marked response:
1: 99.9; 2: 91.8; 3: 95.6; 4: 89.6; 5: 72.2

For every listed record, write down its Emax at 5 µM.
1. CC(C)Oc1ccc(-c2nc(-c3ccc(Cn4ccnc4)cc3C(F)(F)F)no2)cc1C#N
2. CC(C)Oc1ccc(-c2nc(-c3ccc(Cn4ccnc4)cc3Cl)no2)cc1[N+](=O)[O-]

Marked response:
1. 97.6
2. 92.3
